// merged dataset of IC50 values, system = Fibroblast growth factor receptor 4 (Homo sapiens, UniProt P22455), multiple refs
quantityMeasured: IC50 (nM)

compound: CCc1cc2c(nc1C=O)N(C(=O)Nc1cc(NCCOC)c(C#N)cn1)C1CC2(F)C1
quantityMeasured: IC50
testResult: 2.1
--
compound: [2H]C([2H])([2H])Nc1nc(-c2c(Cl)c(OC)cc(OC)c2Cl)cc2cnc(N[C@@H]3COC[C@@H]3NC(=O)C=C)nc12
quantityMeasured: IC50
testResult: 7.9

I: COCCNc1cc(Nc2ccnn2-c2ccc(-c3cnn(C)c3)c(C=O)n2)ncc1C(F)(F)F
II: COC1CCN(c2cc(NC(=O)N(C)c3ccc(CN4CCN(C)CC4=O)c(C=O)n3)ncc2C#N)C1 (centres unmarked)
Asked: Field: entry with larger IC50 (options I / II ). Refer to your chosen entry by its label in the reply.
Given back: I
(I: 480 nM, II: 6.5 nM)

1: COCCNc1cc(NC(=O)N(C[C@@H]2CCOC2)c2cccc(C=O)n2)ncc1C#N (single isomer, unassigned)
2: C=CC(=O)Nc1cc(N2CCN(C)CC2)cc(C)c1Nc1cc2c(=O)n(C)c(-c3c(Cl)c(OC)cc(OC)c3Cl)nc2cn1
Asked: Field: entry with larger IC50 (options 1 / 2 ). Refer to your chosen entry by its label in the reply.
Given back: 2
